tested on: OVCAR-8 ovarian; assay: NCI-60 one-dose screen, 48 h (100 = growth as untreated, 0 = no growth, -100 = all killed); conditions: 10 µM unless noted
Compounds without any hit were thinned out: in the full panel of roughly 83,000, 20% have a hit.
The threshold is 40%. Values of growth beneath it are tagged t; values meeting or exceeding it are tagged f.

Reference set (8 entries):
- Cc1cc2c(c(=O)o1)C(c1ccc(OC(=O)N3CCOCC3)cc1)C(C#N)=C(N)O2 (stereo not given): f
- O=C(O)c1ccc(-n2c(=O)c3ccccc3c3ccccc3c2=O)cc1: f
- C=CCc1cc(Cl)cc2c(OC(C)=O)c(C(C)=O)c(-c3ccccc3)nc12: f
- CNC(C)=O: f
- COc1ccc(NC(=S)/N=c2\oc3c(OC)cccc3cc2-c2cc3ccccc3[nH]2)cc1: f
- COc1ccc(S(=O)(=O)NCCNc2nccc(-c3c(-c4ccccc4)nc4sccn34)n2)cc1: t
- Cc1nc(Nc2cccnc2)sc1C(=O)/C=C/c1ccc(Cl)cc1: t
- O=C(Nc1cc(C(F)(F)F)cc(C(F)(F)F)c1)Nc1ccc(OCc2nnc(-c3ccc(Cl)cc3)o2)c(F)c1: t

--- query ---
[ask] Given CCCCCCCCCCC/C=C\C[C@H](O)C/C=C1/C(=O)C=C[C@@H]1C/C=C\CCCC(=O)OC , is recorded growth strictly lower than 40%?
[reply] t

---

tested on: OVCAR-3 ovarian; experiment: NCI-60 one-dose screen, 48 h (100 = growth as untreated, 0 = no growth, -100 = all killed); settings: 10 µM unless noted
The panel holds about 83,000 compounds, 20% with a hit somewhere; the sample as a whole holds those more often.
measuredAttribute: growth (%)
// note: answer is a bare numeric in %

Examples with their reported growth follow.
• O=c1oc2cc(OS(=O)(=O)c3ccccc3)c(Cl)cc2c2c1CCCCCC2 = 91.3
• COc1ccc(NC(=O)/N=c2\oc3c(OC)cccc3cc2-c2cc3ccccc3[nH]2)cc1 = 64.4
• NC(=O)c1c(NC(=O)c2ccc3c(c2)OCO3)sc2c1CCC(=O)C2 = -47
• OC1CC2c3ccccc3C1c1ccccc12 (centres undefined) = 112
• CC(C)(C)c1cn2cccc(C(=O)N3CCN(CC(=O)Nc4ccc(Cl)cc4C(=O)c4ccccc4Cl)CC3)c2n1 = 75.7
• CN1CCN(c2ccc3cc(-c4nc5ccccc5[nH]4)c(=O)oc3c2)CC1 = 97.2
• COc1cc(/C=C2\CCCC3=C2NC(C)=NC3c2cc(OC)c(OC)c(OC)c2)cc(OC)c1OC (centres undefined) = 28
• NC(=O)c1cccc(N2Cc3ccccc3OC3=C2C(=O)c2c(O)ccc(O)c2C3=O)c1 = -94.2
• CCC(c1cccc(Br)c1)C(C(=O)O)c1ccc(OC)cc1 (centres undefined) = 110
• COc1ccc(OC)c(-c2ccc(-c3ccccc3N)c3[nH]c4ccccc4c23)c1 = 75.1

[ask] With OVCAR-3 ovarian as the test system, provide measured growth for this compound: NC(N)=NC(N)=Nc1ccccc1-c1ccccc1
[reply] 117

[ask] Specify growth for CCn1cc(C2NC(=O)c3cc(F)ccc3N2)c2cccc(Cl)c21 (centres undefined) , system OVCAR-3 ovarian.
[reply] 6.84

---

test system: NCI-H226 lung; test: NCI-60 one-dose screen, 48 h (100 = growth as untreated, 0 = no growth, -100 = all killed); settings: 10 µM unless noted
About 83,000 compounds went through this panel and 20% of them were active in at least one assay; those are over-represented in the sample as a whole.
measuredAttribute: growth (%)
Note: unit % is implicit; provide only the numeric part.

Record excerpt, results attached:
- CCCC1OC(c2ccc(C(C)C)cc2)OCC1CC (centres undefined): 100
- COc1ccc(C(=O)/C=C/c2cc(C(=O)c3cc(OC)c(OC)c(OC)c3)ccc2OC)cc1: 90.7
- COc1cccc(-c2nc3sccn3c2-c2ccnc(NCCCNS(=O)(=O)c3ccccc3)n2)c1: 23.3
- CCCCCCOc1ccc(C2(Cl)c3ccccc3N(C)c3ccccc32)cc1: 29.5
- O=S(=O)(NCCCNc1cc(-c2cn(-c3ccccc3)nc2-c2cccc(O)c2)ccn1)c1cccc2ccccc12: 38.7
- O=C1Nc2ccc(Br)cc2C1=N/C=c1\[nH]c(=O)/c(=C/c2ccc(Cl)cc2)s1: 98.3
- COc1cc2c(cc1OCCCCn1c(-c3cc(=O)c4ccccc4o3)nc3ccccc31)N=C[C@@H]1CCCN1C2=O: 101
- O=C1c2ccccc2C(=O)c2c(N=Nc3sc(=O)[nH]c3S)cccc21: 110

[ask] Input C#CCC1(c2ccc(F)c(F)c2)NS(=O)(=O)c2ccccc21 (centres undefined) , output reported growth.
[reply] 103
